Molecular target: TaqER (Thermus aquaticus, UniProt P19821 1-832, A743R)
Sequence (P19821 whole entry A743R): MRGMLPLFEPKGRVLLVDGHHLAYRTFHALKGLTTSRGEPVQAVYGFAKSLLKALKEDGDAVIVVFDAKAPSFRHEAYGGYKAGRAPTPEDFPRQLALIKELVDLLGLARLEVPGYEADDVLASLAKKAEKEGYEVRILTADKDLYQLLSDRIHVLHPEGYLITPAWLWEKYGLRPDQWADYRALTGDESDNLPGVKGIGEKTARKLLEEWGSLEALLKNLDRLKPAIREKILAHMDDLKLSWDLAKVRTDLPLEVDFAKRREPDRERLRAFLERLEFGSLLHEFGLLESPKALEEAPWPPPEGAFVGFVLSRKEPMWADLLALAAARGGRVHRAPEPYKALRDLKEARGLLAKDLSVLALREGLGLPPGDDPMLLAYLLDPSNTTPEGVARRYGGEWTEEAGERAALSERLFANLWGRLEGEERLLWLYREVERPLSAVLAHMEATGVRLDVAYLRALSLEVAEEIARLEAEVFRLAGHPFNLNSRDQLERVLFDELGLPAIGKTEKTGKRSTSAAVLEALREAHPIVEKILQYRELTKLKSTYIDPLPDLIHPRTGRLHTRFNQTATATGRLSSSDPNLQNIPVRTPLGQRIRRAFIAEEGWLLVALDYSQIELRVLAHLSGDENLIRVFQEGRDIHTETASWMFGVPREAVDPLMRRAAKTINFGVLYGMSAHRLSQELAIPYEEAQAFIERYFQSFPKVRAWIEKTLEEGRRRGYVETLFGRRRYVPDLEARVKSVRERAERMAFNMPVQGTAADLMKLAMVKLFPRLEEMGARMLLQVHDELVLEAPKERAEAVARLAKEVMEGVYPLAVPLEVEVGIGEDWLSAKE
Experiment: EMSA; 5 mM Mg2+; apparent Kd; EMSA: 3 nM DNA, 20 mM Tris-HCl pH 8.8, 10 mM NaCl, 5 mM MgCl2, 14 mM 2-mercaptoethanol, 0.1 mg/ml BSA, 5% glycerol, 40 C, 5 min; 1% agarose gel
Details: protein: recombinant; label: 32P on 27mer; primer-template; 27 bp duplex, 5' overhang 22 nt on the 49mer template
readout name: pKd
Worth noting: pKd values are minus log10 of concentrations stated in mol/L.

primed DNA (27mer/49mer) (dsDNA) DNA 1: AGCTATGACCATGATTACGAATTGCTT DNA 2: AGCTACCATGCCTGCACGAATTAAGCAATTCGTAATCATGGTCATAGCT has a reported pKd of 8.10
